Hey, just so you know, these numbers are from ChEMBL document CHEMBL3044676.

Test system: Streptomyces acidiscabies
experiment_summary: Antimicrobial activity against Streptomyces acidiscabies ATCC 4900315 assessed as inhibition of aerial mycelial growth at 0.04 ug/disk after 5 days by paper disk method
Assay type: functional
The source made the active and inactive calls. No cut-off for these calls is given here.
value_kind: diameter of the inhibition zone (DIZ)

CC1(C)S[C@@H]2[C@H](NC(=O)[C@H](N)c3ccccc3)C(=O)N2[C@H]1C(=O)O [AMPICILLIN] :: inactive
CN(C)[C@@H]1C(O)=C(C(N)=O)C(=O)[C@@]2(O)C(O)=C3C(=O)c4c(O)cccc4[C@@](C)(O)[C@H]3[C@H](O)[C@@H]12 [OXYTETRACYCLINE] :: inactive
NC[C@H]1O[C@H](O[C@H]2[C@H](O)[C@@H](O[C@H]3O[C@H](CO)[C@@H](O)[C@H](N)[C@H]3O)[C@H](N)C[C@@H]2N)[C@H](O)[C@@H](O)[C@@H]1O [KANAMYCIN] :: inactive

* * *

Here the recorded zone of inhibition at 4 µg/disc is given for each entry.
Tested on: Streptomyces scabiei
experiment_summary: Antimicrobial activity against Streptomyces scabiei ATCC 4917314 assessed as inhibition of aerial mycelial growth at 4 ug/disk after 5 days by paper disk method
Assay type: functional
applied_conditions: ATCC 4917314, 120 h, read-out: DIZ
The figure you give is taken to be in mm; do not add the unit.

CO[C@H]1/C=C/O[C@@]2(C)Oc3c(C)c(O)c4c(O)c(cc(O)c4c3C2=O)NC(=O)/C(C)=C\C=C\[C@H](C)[C@H](O)[C@@H](C)[C@@H](O)[C@@H](C)[C@H](OC(C)=O)[C@@H]1C :: 11

Specify zone of inhibition at 4 µg/disc for CN[C@@H]1[C@H](O)[C@H](NC)[C@H]2O[C@@]3(O)C(=O)C[C@@H](C)O[C@H]3O[C@@H]2[C@H]1O and stop. 19

Note down zone of inhibition at 4 µg/disc recorded for C=C(NC(=O)C(=C)NC(=O)c1csc(C2=N[C@@H]3c4csc(n4)[C@H]4NC(=O)c5csc(n5)[C@H]([C@](C)(O)[C@@H](C)O)NC(=O)[C@H]5CSC(=N5)/C(=C/C)NC(=O)[C@H]([C@@H](C)O)NC(=O)c5csc(n5)[C@]3(CC2)NC(=O)[C@H](C)NC(=O)C(=C)NC(=O)[C@H](C)NC(=O)[C@H]([C@@H](C)CC)N[C@@H]2C=Cc3c([C@H](C)O)cc(nc3[C@H]2O)C(=O)O[C@@H]4C)n1)C(N)=O 12

* * *

Tested on: Streptomyces scabiei
experiment_summary: Antimicrobial activity against Streptomyces scabiei ATCC 4917314 assessed as inhibition of growth at 4 ug/disk after 5 days by paper disk method
Format: functional
applied_conditions: ATCC 4917314, 120 h, read-out: DIZ
value_kind: zone of inhibition at 4 µg/disc (mm)
Give the value in mm but do not write mm after it.

For orientation, consider the following solved cases.
O=C(N[C@H](CO)[C@H](O)c1ccc([N+](=O)[O-])cc1)C(Cl)Cl :: 15
CO[C@@H]1[C@@H](OC(N)=O)[C@@H](O)[C@H](Oc2ccc3c(O)c(NC(=O)c4ccc(O)c(CC=C(C)C)c4)c(=O)oc3c2C)OC1(C)C :: 26
CN[C@@H]1[C@H](O[C@H]2[C@H](O[C@H]3[C@H](O)[C@@H](O)[C@H](N=C(N)N)[C@@H](O)[C@@H]3N=C(N)N)O[C@@H](C)[C@]2(O)C=O)O[C@@H](CO)[C@H](O)[C@H]1O :: 18
CN(C)[C@@H]1C(O)=C(C(N)=O)C(=O)[C@@]2(O)C(O)=C3C(=O)c4c(O)ccc(Cl)c4[C@@](C)(O)[C@H]3C[C@@H]12 :: 19

Please report zone of inhibition at 4 µg/disc for the following compound: NC[C@H]1O[C@H](O[C@H]2[C@H](O)[C@@H](O[C@H]3O[C@H](CO)[C@@H](O)[C@H](N)[C@H]3O)[C@H](N)C[C@@H]2N)[C@H](O)[C@@H](O)[C@@H]1O 13

Give zone of inhibition at 4 µg/disc for CO[C@@H]1[C@@H](O[C@@H]2O[C@H](C)[C@@H](O[C@H]3C[C@@](C)(O)[C@@H](OC(=O)CC(C)C)[C@H](C)O3)[C@H](N(C)C)[C@H]2O)[C@@H](CC=O)C[C@@H](C)[C@@H](O)/C=C/C=C/C[C@@H](C)OC(=O)C[C@H]1OC(C)=O 21

Give the reported zone of inhibition at 4 µg/disc for this compound. CN(C)[C@@H]1C(O)=C(C(N)=O)C(=O)[C@@]2(O)C(O)=C3C(=O)c4c(O)cccc4[C@@](C)(O)[C@H]3[C@H](O)[C@@H]12 13
